Each entry below carries its recorded IC50.
- Target Of Assay: hNav1.7 (Homo sapiens (Human))
- Sequence (Q15858 other isoform, or with tags, fused parts or gaps): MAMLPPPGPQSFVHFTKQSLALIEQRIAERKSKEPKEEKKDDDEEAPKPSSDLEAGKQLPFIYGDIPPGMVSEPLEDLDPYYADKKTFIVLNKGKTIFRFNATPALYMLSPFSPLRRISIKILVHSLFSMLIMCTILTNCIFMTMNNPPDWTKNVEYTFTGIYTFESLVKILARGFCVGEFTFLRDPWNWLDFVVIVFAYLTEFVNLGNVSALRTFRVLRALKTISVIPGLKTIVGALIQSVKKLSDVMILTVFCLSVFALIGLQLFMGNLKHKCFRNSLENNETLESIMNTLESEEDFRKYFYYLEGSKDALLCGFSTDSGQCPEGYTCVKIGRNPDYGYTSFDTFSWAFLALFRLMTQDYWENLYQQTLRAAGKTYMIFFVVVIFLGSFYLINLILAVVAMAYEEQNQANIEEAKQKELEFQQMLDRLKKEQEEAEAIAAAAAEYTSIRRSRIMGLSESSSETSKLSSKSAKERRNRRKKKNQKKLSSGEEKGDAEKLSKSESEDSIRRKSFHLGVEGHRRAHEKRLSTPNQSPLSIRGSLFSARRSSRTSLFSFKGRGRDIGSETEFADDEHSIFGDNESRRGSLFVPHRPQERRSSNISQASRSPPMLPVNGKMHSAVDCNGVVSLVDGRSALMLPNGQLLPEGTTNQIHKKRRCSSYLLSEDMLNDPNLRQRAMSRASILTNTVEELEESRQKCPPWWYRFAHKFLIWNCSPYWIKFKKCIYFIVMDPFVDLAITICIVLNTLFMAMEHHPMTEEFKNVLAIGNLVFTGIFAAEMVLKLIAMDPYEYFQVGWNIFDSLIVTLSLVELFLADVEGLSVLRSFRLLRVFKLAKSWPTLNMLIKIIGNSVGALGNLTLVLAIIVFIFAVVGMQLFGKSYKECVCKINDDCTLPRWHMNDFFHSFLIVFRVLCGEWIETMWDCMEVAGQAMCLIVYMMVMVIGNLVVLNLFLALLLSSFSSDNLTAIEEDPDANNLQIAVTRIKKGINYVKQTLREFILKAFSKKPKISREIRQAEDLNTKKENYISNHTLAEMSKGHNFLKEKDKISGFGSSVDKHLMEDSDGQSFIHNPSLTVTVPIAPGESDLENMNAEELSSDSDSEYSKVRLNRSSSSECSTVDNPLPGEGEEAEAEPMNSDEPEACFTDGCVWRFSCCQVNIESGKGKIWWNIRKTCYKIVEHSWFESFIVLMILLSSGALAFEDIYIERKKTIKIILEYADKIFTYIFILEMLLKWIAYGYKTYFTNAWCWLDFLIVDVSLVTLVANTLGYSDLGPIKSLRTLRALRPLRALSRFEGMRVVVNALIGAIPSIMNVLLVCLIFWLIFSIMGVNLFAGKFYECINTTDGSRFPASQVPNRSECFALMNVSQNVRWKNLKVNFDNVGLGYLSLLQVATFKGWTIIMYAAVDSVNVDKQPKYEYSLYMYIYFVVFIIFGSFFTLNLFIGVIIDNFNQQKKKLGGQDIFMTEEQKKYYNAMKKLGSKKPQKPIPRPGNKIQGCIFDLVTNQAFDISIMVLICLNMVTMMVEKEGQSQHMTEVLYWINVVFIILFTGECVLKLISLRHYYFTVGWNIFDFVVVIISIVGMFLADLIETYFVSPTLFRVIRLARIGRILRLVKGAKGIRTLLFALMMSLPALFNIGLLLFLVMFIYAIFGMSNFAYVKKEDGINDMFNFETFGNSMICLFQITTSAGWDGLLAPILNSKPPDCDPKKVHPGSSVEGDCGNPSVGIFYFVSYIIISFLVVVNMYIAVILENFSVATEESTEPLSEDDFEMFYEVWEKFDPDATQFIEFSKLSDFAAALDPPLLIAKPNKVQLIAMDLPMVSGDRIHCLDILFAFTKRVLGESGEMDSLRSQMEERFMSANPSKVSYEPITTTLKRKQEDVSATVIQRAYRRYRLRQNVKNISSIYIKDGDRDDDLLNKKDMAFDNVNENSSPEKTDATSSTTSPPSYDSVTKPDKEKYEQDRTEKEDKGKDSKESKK
- Assay Comment: Patch voltage clamp electrophysiology assay (EP), Syncropatch 384PE, CHO cells expressing Nav1.7
- Type: cell-based
- Settings: holding potential −50 mV; 7.5 min compound incubation; read-out: EP SP hNav1.7 EVO (IC50)
Counter-ions that a name gives are not always drawn.
Property Label: IC50 (nM)

[[record]]
compound = "CN1CC(CN(C)[C@]2(CCc3cccc(C(F)(F)F)c3)CCCN(c3ccc(S(=O)(=O)Nc4ccncn4)c(F)c3)C2)C1 (single isomer, unassigned) [Example 30, formate]"
target_of_assay = "hNav1.7 (Homo sapiens (Human))"
quantitative_readout = 13.5

[[record]]
compound = "CN([C@H]1CCOC1)[C@@]1(CCc2cccc(C(F)(F)F)c2)CCCN(c2cc(F)c(S(=O)(=O)Nc3ccncn3)c(F)c2)C1 (single isomer, unassigned) [Example 80]"
target_of_assay = "hNav1.7 (Homo sapiens (Human))"
quantitative_readout = 283

[[record]]
compound = "CN(C)[C@]1(CCc2cccc(C(F)(F)F)c2)CN(c2cc(F)c(S(=O)(=O)Nc3ccncn3)c(F)c2)CC[C@H]1O (single isomer, unassigned) [Example 74, formate]"
target_of_assay = "hNav1.7 (Homo sapiens (Human))"
quantitative_readout = 1010

[[record]]
compound = "CN(CCO)[C@@]1(CCc2cccc(C(F)(F)F)c2)CCCN(c2cc(F)c(S(=O)(=O)Nc3ccncn3)c(F)c2)C1 (single isomer, unassigned) [Example 60]"
target_of_assay = "hNav1.7 (Homo sapiens (Human))"
quantitative_readout = 138

[[record]]
compound = "CN(C)[C@]1(CC2CCCC2)CCCN(c2cc(F)c(S(=O)(=O)Nc3ccncn3)c(F)c2)C1 [Example 100]"
target_of_assay = "hNav1.7 (Homo sapiens (Human))"
quantitative_readout = 130

[[record]]
compound = "CN(C)[C@]1(C[C@H]2CCc3ccc(C(F)(F)F)cc32)CCCN(c2cc(F)c(S(=O)(=O)Nc3ccncn3)c(F)c2)C1 [Example 48, formate]"
target_of_assay = "hNav1.7 (Homo sapiens (Human))"
quantitative_readout = 1.55

[[record]]
compound = "CN(C)[C@]1(CCc2cccc(C3CC3)c2)CCCN(c2cc(F)c(S(=O)(=O)Nc3ccncn3)c(F)c2)C1 (single isomer, unassigned) [Example 89, formate]"
target_of_assay = "hNav1.7 (Homo sapiens (Human))"
quantitative_readout = 567

[[record]]
compound = "CN(C)[C@]1(CCc2cccc(C(F)(F)F)c2)CCCN(c2cc(F)c(S(=O)(=O)Nc3ccncn3)cc2Cl)C1 (single isomer, unassigned) [Example 12]"
target_of_assay = "hNav1.7 (Homo sapiens (Human))"
quantitative_readout = 51.5

[[record]]
compound = "CN(C)[C@@]1(CCc2ccc(C(F)(F)F)c(Cl)c2)CCCN(c2cc(F)c(S(=O)(=O)Nc3ccncn3)c(F)c2)C1 (single isomer, unassigned) [Example 50]"
target_of_assay = "hNav1.7 (Homo sapiens (Human))"
quantitative_readout = 504

[[record]]
compound = "CN(C)[C@@]1(CCc2cccc(C(F)(F)F)c2)CCCN(c2cc(F)c(S(=O)(=O)Nc3ccncn3)c(Cl)c2)C1 (single isomer, unassigned) [Example 17]"
target_of_assay = "hNav1.7 (Homo sapiens (Human))"
quantitative_readout = 314

